The reported numbers originate from ChEMBL document CHEMBL4043269.

- assay_remarks: Stability in Wistar rat plasma assessed as parent compound remaining at 2 uM after 6 hrs by LC-MS/MS analysis relative to initial concentration
- Type: ADME, cell-free
- measurement_conditions: read-out: Stability
result_type: remaining at 6 h, 2 µM (%)
Provide the reading as a plain figure in %.

[in] Using the record for N=C(N)NC(=O)OCc1cccc(-c2cnc(N3CCOCC3)nc2)c1.O=C(O)C(O)C(O)C(=O)O , report its remaining at 6 h, 2 µM.
[out] 105

---

- assay_remarks: Half life in Beagle dog at 0.2 mg/kg, iv by LC-MS/MS analysis
- Format: ADME, organism-based, Canis lupus familiaris
- measurement_conditions: in vivo
result_type: half-life (h)
Provide the reading as a plain figure in h.

[in] Using the record for Cc1ccc(OC2CN(c3cccc(COC(=O)NC(=N)N)c3F)C2)cn1.O=C(O)C(O)C(O)C(=O)O , report its half-life.
[out] 8.9

---

- assay_remarks: Cmax in Beagle dog at 0.2 mg/kg, po by LC-MS/MS analysis
- Assay type: ADME, organism-based, Canis lupus familiaris
- Parameters: dose 0.2 mg/kg, route oral
- measurement_conditions: in vivo
result_type: Cmax (ng/mL)
Provide the reading as a plain figure in ng/mL.

[in] Using the record for Cc1ccc(OC2CN(c3cccc(COC(=O)NC(=N)N)c3F)C2)cn1.O=C(O)C(O)C(O)C(=O)O , report its Cmax.
[out] 29.9

---

- measured_target: CYP2D6 (Homo sapiens, UniProt P10635)
- Sequence (P10635 whole entry): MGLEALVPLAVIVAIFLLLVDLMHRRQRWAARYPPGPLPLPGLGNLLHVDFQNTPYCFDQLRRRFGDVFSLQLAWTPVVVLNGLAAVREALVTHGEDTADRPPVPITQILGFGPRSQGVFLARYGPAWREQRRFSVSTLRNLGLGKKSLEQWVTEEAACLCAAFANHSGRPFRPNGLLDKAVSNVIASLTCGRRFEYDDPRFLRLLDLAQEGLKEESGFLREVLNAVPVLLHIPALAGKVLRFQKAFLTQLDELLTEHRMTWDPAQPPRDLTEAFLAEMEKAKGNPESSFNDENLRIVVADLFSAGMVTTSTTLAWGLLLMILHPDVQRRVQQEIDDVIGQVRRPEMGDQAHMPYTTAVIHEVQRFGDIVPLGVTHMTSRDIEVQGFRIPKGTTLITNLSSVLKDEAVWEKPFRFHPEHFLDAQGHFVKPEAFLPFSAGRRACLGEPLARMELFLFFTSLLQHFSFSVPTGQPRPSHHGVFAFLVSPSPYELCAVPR
- assay_remarks: Inhibition of CYP2D6 in human liver microsomes using dextromethorphan as substrate assessed as residual activity at 5 uM after 20 mins by HPLC analysis
- Assay type: ADME
- measurement_conditions: probe dextromethorphan, read-out: Activity
result_type: activity at 20 min, 5 µM (%)
Provide the reading as a plain figure in %.

Take a look at these entries with their results.
structure_smiles: N=C(N)NC(=O)OCc1cccc(N2CCC(Oc3cccnc3)CC2)c1F.O=C(O)C(O)C(O)C(=O)O
result_type: activity at 20 min, 5 µM
observed_result: 11
--
structure_smiles: Cl.Cl.Cl.N=C(N)NC(=O)OCc1cccc(N2CCN(c3ccncc3)CC2)c1
result_type: activity at 20 min, 5 µM
observed_result: 13
--
structure_smiles: N=C(N)NC(=O)OCc1cccc(N2CC(Oc3cccnc3)C2)c1F.N=C(N)NC(=O)OCc1cccc(N2CC(Oc3cccnc3)C2)c1F.O=C(O)C(O)C(O)C(=O)O
result_type: activity at 20 min, 5 µM
observed_result: 16

Here is the next item to consider.
[in] Using the record for Cc1ccc(OC2CN(c3cccc(COC(=O)NC(=N)N)c3F)C2)cn1.O=C(O)C(O)C(O)C(=O)O , report its activity at 20 min, 5 µM.
[out] 95

---

- assay_remarks: AUC in cynomolgus monkey at 0.2 mg/kg, po by LC-MS/MS analysis
- Format: ADME, organism-based, Macaca fascicularis
- measurement_conditions: in vivo
result_type: AUC (µg·h/mL)
Provide the reading as a plain figure in µg·h/mL.

[in] Using the record for Cc1ccc(OC2CN(c3cccc(COC(=O)NC(=N)N)c3F)C2)cn1.O=C(O)C(O)C(O)C(=O)O , report its AUC.
[out] 4.51

---

- assay_remarks: Aqueous solubility of compound in Japanese pharmacopoeia second fluid at pH 6.8 at 130 uM after 20 hrs by HPLC analysis
- Format: physicochemical
result_type: solubility at 20 h, 130 µM (µM)
Provide the reading as a plain figure in µM.

structure_smiles: Cl.Cl.N=C(N)NC(=O)OCc1cccc(-c2cnc(N3CCOCC3)nc2)c1Cl
solubility at 20 h, 130 µM [µM]: 8.2

[in] Using the record for N=C(N)NC(=O)OCc1ccc(F)c(-c2cnc(N3CCOCC3)nc2)c1F.N=C(N)NC(=O)OCc1ccc(F)c(-c2cnc(N3CCOCC3)nc2)c1F.O=C(O)C(O)C(O)C(=O)O , report its solubility at 20 h, 130 µM.
[out] 17
